Target: Neuronal acetylcholine receptor; alpha4/beta2 (Homo sapiens, UniProt P17787+P43681)
Assay: Agonist activity at human alpha4beta2 nACHR expressed in xenopus oocyte assessed as potentiation of acetylcholine-induced current by two electrode voltage clamp assay
Format: functional
Active and inactive are the calls of the source. No cut-off for these calls is given here.
observable: pEC50

CNCCc1c[nH]c2cc(Br)ccc12	inactive
CCC(C)c1[nH]c2ccccc2c1CCNC (racemic)	inactive
CCCc1[nH]c2cc(Br)ccc2c1CCNC	inactive
CNCCc1c(C(C)C)[nH]c2ccccc12	inactive
CCCc1[nH]c2ccccc2c1CCNC	inactive

Form field: reported pEC50 of C=CCc1[nH]c2cc(Br)ccc2c1CCNC
inactive
